Some molecules, each annotated with its measured melting point.

>  <molecule>
Cc1cc2n(n1)CCC(=O)N2

>  <melting point>
221 to 223 °C

$$$$
>  <molecule>
NCCCN1C(=O)NC2(CCCC2)C1=O

>  <melting point>
129 to 131 °C

$$$$
>  <molecule>
N#Cc1ccc(C(F)(F)F)nc1Cl

>  <melting point>
38 to 40 °C

$$$$
>  <molecule>
O=C1NC(=O)C(c2ccccc2OC(F)(F)F)N1 (configuration not stated)

>  <melting point>
156 to 158 °C

$$$$

Query: In one line, give reported melting point of the entry `O=C(CCl)Nc1ccc2[nH]c(C(F)(F)F)nc2c1` .
Result: 217 to 219 °C

Query: In one line, give reported melting point of the entry `CCOC(=O)c1[nH]c2c(c1C)C(=O)CCC2` .
Result: 159 to 161 °C

Query: In one line, give reported melting point of the entry `NCCc1c[nH]c2cc(Cl)ccc12` .
Result: 104 to 106 °C

Query: In one line, give reported melting point of the entry `COc1ccc(CCc2nnc(N)o2)cc1` .
Result: 216 to 218 °C

Query: In one line, give reported melting point of the entry `Cc1nc(N)ccc1I` .
Result: 99 to 100 °C

Query: In one line, give reported melting point of the entry `CCN(CC)S(=O)(=O)c1ccc(N2CCNCC2)c([N+](=O)[O-])c1` .
Result: 131 to 133 °C

Query: In one line, give reported melting point of the entry `CCc1ccccc1Nc1nnc(S)s1` .
Result: 159 to 161 °C

Query: In one line, give reported melting point of the entry `CCc1ccc(/C=C/c2cc(C(=O)O)c3cc(Br)ccc3n2)cc1` .
Result: 286 to 288 °C

Query: In one line, give reported melting point of the entry `Cc1c(N)cccc1NC(=O)c1ccccc1I` .
Result: 198 to 200 °C

Query: In one line, give reported melting point of the entry `O=S(=O)(c1ccc(Cl)nc1)N1CCOCC1` .
Result: 143 to 145 °C

Query: In one line, give reported melting point of the entry `CNS(=O)(=O)c1ccc(Cl)s1` .
Result: 45 to 47 °C

Taken from a melting point compilation (Tetko et al.).
